biological target: Beta-secretase 1 (Homo sapiens, UniProt P56817); experiment: Inhibition of BACE1 in human HEK293 cells transfected with pCDNA-neo-SEAP-APP assessed as secreted alkaline phosphatase after cleavage of beta-site of APP by fluorescence assay; assay type: cell-based
Sequence (P56817 whole entry): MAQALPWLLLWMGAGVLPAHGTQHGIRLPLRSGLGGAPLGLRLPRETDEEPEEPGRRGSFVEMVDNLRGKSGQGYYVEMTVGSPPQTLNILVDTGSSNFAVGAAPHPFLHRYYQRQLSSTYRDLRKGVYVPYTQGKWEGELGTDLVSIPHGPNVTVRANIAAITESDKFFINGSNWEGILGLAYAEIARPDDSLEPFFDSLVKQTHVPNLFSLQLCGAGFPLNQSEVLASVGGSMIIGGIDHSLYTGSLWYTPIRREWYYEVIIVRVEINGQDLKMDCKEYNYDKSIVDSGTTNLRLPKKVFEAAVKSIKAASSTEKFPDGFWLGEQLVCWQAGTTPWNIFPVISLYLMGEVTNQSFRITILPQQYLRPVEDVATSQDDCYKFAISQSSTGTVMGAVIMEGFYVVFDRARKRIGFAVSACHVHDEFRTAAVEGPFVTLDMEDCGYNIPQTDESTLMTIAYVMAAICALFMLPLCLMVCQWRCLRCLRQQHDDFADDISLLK
pIC50: −log10 of the molar value.
Experimental readout: pIC50

# annotated cases, reported pIC50 shown
1. CC(=O)C1=C(C)N(CC(=O)OC(C)C)C(C)=C(C(=O)N[C@@H](Cc2ccccc2)[C@H](O)CNc2cccc(F)c2)C1C (some centres not stated) : 4.58
2. CCCC1C(C(C)=O)=C(C)N(CC(=O)OC(C)C)C(C)=C1C(=O)N[C@@H](Cc1ccccc1)[C@H](O)CNc1cccc(F)c1 (some centres not stated) : 4.57
3. CCCC1C(C(=O)N[C@@H](Cc2ccccc2)[C@H](O)CNc2cccc(OC)c2)=CN(CC(=O)OC(C)C)C=C1C(=O)N[C@H](C)c1ccccc1 (some centres not stated) : 4.51
4. CCCC1C(C(=O)N[C@@H](Cc2ccccc2)[C@H](O)CNC2CC2)=CN(CC(=O)OC(C)C)C=C1C(=O)OC(C)(C)C (some centres not stated) : 4.61
5. CC(=O)C1=C(C)N(CC(=O)OC(C)C)C(C)=C(C(=O)N[C@@H](Cc2ccccc2)[C@H](O)CNC2CC2)C1C (some centres not stated) : 4.53

P. CCCC1C(C(C)=O)=C(C)N(CC(=O)OC(C)C)C(C)=C1C(=O)N[C@@H](Cc1ccccc1)[C@H](O)CNc1cccc(OC)c1 (some centres not stated)
Q. CC1=C(C(=O)OCc2ccccc2)C(C)C(C(=O)N[C@@H](Cc2ccccc2)[C@H](O)CNC2CC2)=CN1CC(=O)OC(C)C (some centres not stated)
Kindly compare P with Q and tell me which has the lower pIC50 figure. Reply briefly: the label of your chosen item.
P

----------
target: Beta-secretase 1 (Homo sapiens, UniProt P56817); assay: Inhibition of BACE1
Experimental readout: IC50 (nM)
Expressed in nM, but write only the number.

Which IC50 is reported for this molecule? `CCNc1cc(C(=O)N[C@@H](Cc2ccccc2)[C@H](O)CNc2cccc(C(F)(F)F)c2)cc(N2CCCCS2(=O)=O)c1`
5

----------
biological target: Beta-secretase 1 (Homo sapiens); test: Inhibition of BACE1 in human HEK293 cells transfected with pCDNA-neo-SEAP-APP assessed as secreted alkaline phosphatase after cleavage of beta-site of APP by fluorescence assay; format: cell-based
pIC50: −log10 of the molar value.
Experimental readout: pIC50

Here is how some molecules turned out for pIC50.
1) COC(=O)CN1C(C)=C(C(=O)NOCc2ccccc2)C(C)C(C(=O)N[C@@H](Cc2ccccc2)[C@H](O)CNC2CC2)=C1C (stereo partly specified) : 4.82
2) CC(=O)OCCCN1C(C)=C(C(=O)N[C@@H](Cc2ccccc2)[C@H](O)CNC2CC2)C(C)C(C(=O)OCc2ccccc2)=C1C (stereo partly specified) : 4.57
3) CC(=O)C1=C(C)N(CC(=O)OC(C)C)C=C(C(=O)N[C@@H](Cc2ccccc2)[C@H](O)CNc2cccc(F)c2)C1C (stereo partly specified) : 4.53
4) CC(C)OC(=O)CN1C=C(C(=O)N[C@@H](Cc2ccccc2)[C@H](O)CNC2CC2)C(C)C(C(=O)OC(C)(C)C)=C1 (stereo partly specified) : 4.50
5) CCC1C(C(=O)N[C@@H](Cc2ccccc2)[C@H](O)CNC2CC2)=C(C)N(S(C)(=O)=O)C(C)=C1C(=O)N[C@H](C)c1ccccc1 (stereo partly specified) : 4.79
6) CCOC(=O)CN1C(C)=C(C(=O)NOCc2ccccc2)C(C)C(C(=O)N[C@@H](Cc2ccccc2)[C@H](O)CNC2CC2)=C1C (stereo partly specified) : 4.81

I. CCCC1C(C(=O)N[C@@H](Cc2ccccc2)[C@H](O)CNC2CC2)=CN(CC(=O)OC(C)C)C=C1C(=O)N[C@H](C)c1ccccc1 (stereo partly specified)
II. CCCC1C(C(=O)NOCc2ccccc2)=C(C)N(S(C)(=O)=O)C(C)=C1C(=O)N[C@@H](Cc1ccccc1)[C@H](O)CNC1CC1 (stereo partly specified)
Which shows the larger pIC50 value: I or II ? Respond with the label that goes with your answer.
II

A. CC1=C(C(=O)N[C@@H](Cc2ccccc2)[C@H](O)CNC2CC2)C(C)C(C(=O)N[C@H](C)c2ccccc2)=C(C)N1S(C)(=O)=O (stereo partly specified)
B. CCCC1C(C(=O)N[C@@H](Cc2ccccc2)[C@H](O)CNc2cccc(OC)c2)=CN(CC(=O)OC(C)C)C=C1C(=O)OC(C)(C)C (stereo partly specified)
Pick one: A or B . Which has the bigger pIC50 number? Give the chosen item's label as your response.
A

----------
molecular target: Beta-secretase 1 (Homo sapiens, UniProt P56817); test: Inhibition of BACE1 in human HEK293 cells transfected with pCDNA-neo-SEAP-APP assessed as secreted alkaline phosphatase after cleavage of beta-site of APP by fluorescence assay; type: cell-based
Experimental readout: IC50 (µM)

1. CC(C)OC(=O)CN1C=C(C(=O)N[C@@H](Cc2ccccc2)[C@H](O)CNC2CC2)C(C)C(C(=O)N[C@H](C)c2ccccc2)=C1 (some centres undefined) : 32.8
2. CC1=C(C(=O)NOCc2ccccc2)C(C(C)C)C(C(=O)N[C@@H](Cc2ccccc2)[C@H](O)CNC2CC2)=C(C)N1S(C)(=O)=O (some centres undefined) : 11

A. CC1=C(C(=O)NOCc2ccccc2)C(C)C(C(=O)N[C@@H](Cc2ccccc2)[C@H](O)CNC2CC2)=C(C)N1S(C)(=O)=O (some centres undefined)
B. CCCC1C(C(C)=O)=C(C)N(CC(=O)OC(C)C)C(C)=C1C(=O)N[C@@H](Cc1ccccc1)[C@H](O)CNCc1cccc(OC)c1 (some centres undefined)
Parameter check: reported IC50 is higher for which label, A or B ? Please indicate the selected item by its label.
B

----------
biological target: UniProtKB P56817; experiment: Inhibition of BACE1 in human HEK293 cells transfected with pCDNA-neo-SEAP-APP assessed as secreted alkaline phosphatase after cleavage of beta-site of APP by fluorescence assay; assay type: cell-based
Experimental readout: IC50 (µM)

1. CCC1C(C(=O)NOCc2ccccc2)=C(C)N(S(C)(=O)=O)C(C)=C1C(=O)N[C@@H](Cc1ccccc1)[C@H](O)CNC1CC1 (some centres not stated) : 9.5
2. COc1cccc(CNC[C@@H](O)[C@H](Cc2ccccc2)NC(=O)C2=CN(CC(=O)OC(C)C)C(C)=C(C(C)=O)C2C)c1 (some centres not stated) : 26.1
3. CC1=C(C(=O)N[C@@H](Cc2ccccc2)[C@H](O)CNC2CC2)C(C)C(C(=O)OCc2ccccc2)=C(C)N1CC(=O)N(C)C (some centres not stated) : 39.1
4. CCCC1C(C(C)=O)=C(C)N(CC(=O)OC(C)C)C(C)=C1C(=O)N[C@@H](Cc1ccccc1)[C@H](O)CNC1CC1 (some centres not stated) : 33.1
5. CC1=C(C(=O)N[C@@H](Cc2ccccc2)[C@H](O)CNC2CC2)C(C)C(C(=O)OCc2ccccc2)=C(C)N1CC(=O)N1CCOCC1 (some centres not stated) : 28.4

A. CC1=C(C(=O)N[C@@H](Cc2ccccc2)[C@H](O)CNC2CC2)C(C)C(C(=O)OCc2ccccc2)=C(C)N1CC(=O)N(C)C(C)C (some centres not stated)
B. CC1=C(C(=O)NOCc2ccccc2)C(C)C(C(=O)N[C@@H](Cc2ccccc2)[C@H](O)CNC2CC2)=C(C)N1CC(=O)OC(C)C (some centres not stated)
Select one: A or B . Criterion: greater recorded IC50. Identify your pick by its label.
A
(A: 28.2 µM, B: 9 µM)

Attribution: ChEMBL document CHEMBL1165903
